- experimentalTarget: T1, FcRn-p3 fusion protein (human, UniProt P55899 24-297; P61769 21-119)
- T1 construct: baculovirus expressed; coated on ELISA wells; not shown: amino terminal part of bacteriophage p3 protein and CVDE protein
- T1 sequence (P55899 24-297, chain 1 of 2): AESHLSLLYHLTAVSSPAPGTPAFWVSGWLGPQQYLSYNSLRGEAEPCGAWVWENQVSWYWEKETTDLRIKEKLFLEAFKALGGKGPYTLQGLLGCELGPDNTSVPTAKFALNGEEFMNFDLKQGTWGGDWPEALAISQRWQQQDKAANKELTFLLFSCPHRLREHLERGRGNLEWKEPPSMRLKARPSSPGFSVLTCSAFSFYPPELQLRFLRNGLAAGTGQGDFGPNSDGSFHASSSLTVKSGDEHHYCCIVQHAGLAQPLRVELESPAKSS
- T1 sequence (P61769 21-119, chain 2 of 2): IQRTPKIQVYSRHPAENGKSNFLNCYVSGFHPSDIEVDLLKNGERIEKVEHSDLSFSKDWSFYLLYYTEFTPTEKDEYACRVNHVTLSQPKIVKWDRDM
- experimentDescription: phage ELISA pH6
measurementKind: Ratio/Fc-H (fold)
Numeric answer only, unit fold assumed.

Some binders with recorded Ratio/Fc-H:
Per the records, this binder ( T7A_57 (other, EU numbering) CPPCTAPELLGGPSVFLFPPKPKDTLMISRTPEVTCVVVDVSHEDPEVKFNWYVDGVEVHNAKTKPREEQYNSTYRVVSVLAVLHQDWLDGKEYKCKVSNKALPVPIEKTISKAKGQPREPQVYTLPPSRDELTKNQVSLTCLVKGFYPSDIAVEWESNGQPENNYKTTPPVLDSDGSFFLYSKLTVDKSRWEQGNVFSCSVMHEALHYHYTQKSLSLSPGK ) has Ratio/Fc-H equal to 2.5

Per the records, this binder ( T5A_03 (other, EU numbering) CPPCPAPELLGGPSVFLFPPKPKDTLMISRTPEVTCVVEDVSHEDPEVKFNWYVDGVEVHNAKTKPREEQYNSTYRVVSVLTVLHQDWLNGKEYKCKVSNKALPAPIEKTISKAKGQPREPQVYTLPPSRDELTKNQVSLTCLVKGFYPSDIAVEWESNGQPENNYKTTPLVLDSDGSFFLYSKLTVDKSRWQQGNVFSCSVMHEALHSHYTQKSLSLSPGK ) has Ratio/Fc-H equal to 2

Per the records, this binder ( C6A_69 (other, EU numbering) CPPCPAPELLGGPSVFLFPPKPKDTLMISRTPEVTCVVVDVSHEDPEVKFNWYVDGVEVHNAKTKPREEQYNSTYRVVSVLAVLHQDWLDGKEYKCKVSNKALPVPIEKTISKAKGQPREPQVYTLPPSRDELTKNQVSLTCLVKGFYPSDIAVEWVSNGQPETNYKTTPPVLDSDGSFFLYSKLTVDKSRWQQGNVFSCSVMHEALHYHYTQKSLSLSPGK ) has Ratio/Fc-H equal to 8.9

***
Per the records, this binder ( T4A_34 (other, EU numbering) CPPCPAPELLGGPSVFLFPPKPKDTLMISRTPEVTCVVEDVSHEDPEVKFNWYVDGVEVHNAKTKPREEQYNSTYRVVSVLTVLHQDWLNGKEYKCKVSNKALPAPIEKTISKAKGQPREPQVYTLPPSRDELTKNQVSLTCLVKGFYPSDIVVEWESNGQPENNYKTTPPVLDSDGSFFLYSKLTVDKSRWKQGNVFSCSVMHEALHNHYTQKSLSLSPGK ) has Ratio/Fc-H equal to 1.3

Per the records, this binder ( T7A_58 (other, EU numbering) CPPCPAPELLGGPSVFLFPPKPKDTLMISRTPEVTCVVVDVSHEDPEVKFNWYVDGVEVHNAKTKPREEQYNSTYRVVSVLTVLHQDWLDGKEYKCKVSNKALPAPIEKTISKAKGQPREPQVYTLPPSRDELTKNEVSLTCLVKGFYPSDIAVEWESNGQPENNYKTTPPVLDSDGSFFLYSKLTVDKSRWQQGNVFSCSVMHEALHYHYTQKSLSLSPGK ) has Ratio/Fc-H equal to 2.9
